Taken from ChEMBL document CHEMBL4020838.

measurementDescription: Activation of HUVEC-derived soluble guanylate cyclase expressed in CHOK1 cells assessed as increase in cGMP production after 1 hr by HTRF assay
Format: cell-based
measurementKind: pEC50
The scale used: pEC50 is minus the common logarithm of the concentration in molar units.

Sample records with pEC50:
Task item: Given Cc1cc2c(c(-c3cccc(-n4ncc(C(=O)O)c4C(F)(F)F)n3)c1)C(Nc1ccc(C3CCN(C(=O)C4CC4)CC3)cc1C)CC2 (single isomer, unassigned; (+)) , state its recorded pEC50.
Reply: 9.00

Task item: Given CCc1cc(OCC2=C(c3cccc(-n4ncc(C(=O)O)c4C)n3)CCCC2C)ccc1C1CCN(C(=O)C2CC2)CC1 (stereo in doubt; (-)-24) , state its recorded pEC50.
Reply: 8.52

Now for a further compound.
Task item: Given CCc1cc(OCC2=C(c3cccc(-n4ncc(C(=O)O)c4C(F)(F)F)n3)CCCC2C)ccc1C1CCN(C(=O)C2CC2)CC1 (single isomer, unassigned; (+)) , state its recorded pEC50.
Reply: 9.00

----------
measurementDescription: Activation of soluble guanylate cyclase in human GTM3 cells assessed as increase in cGMP production after 30 mins by fluorescence assay
Format: cell-based
studyConditions: Homo sapiens, GTM3, 0.5 h
pEC50: −log10 of the molar value.
Mark true (1) for reported pEC50 of 7 or greater; mark false (0) for anything smaller.

Observe how each entry below is paired with its result.
Task item: Reported pEC50 at or above 7? Cc1cc(COc2ccc(C3CCN(C(=O)C4CC4)CC3)cc2C)c(-c2cccc(-n3ncc(C(=O)O)c3C(F)(F)F)n2)s1
Reply: true (1)

Task item: Reported pEC50 at or above 7? CCc1cc(OCC2=C(c3cccc(-n4ncc(C(=O)O)c4C)n3)CCCC2C)ccc1C1CCN(C(=O)C2CC2)CC1 (single isomer, unassigned; (+))
Reply: true (1)

Task item: Reported pEC50 at or above 7? Cc1cc(C2CCN(C(=O)C3CC3)CC2)ccc1OCc1cc(Cl)sc1-c1cccc(-n2ncc(C(=O)O)c2C(F)(F)F)n1
Reply: false (0)

Task item: Reported pEC50 at or above 7? CCC(=O)N1CCC(c2ccc(OCc3ccsc3-c3cccc(-n4ncc(C(=O)O)c4C(F)(F)F)n3)c(C)c2)CC1
Reply: false (0)

Task item: Reported pEC50 at or above 7? CCc1cc(COc2ccc(C3CCN(C(=O)C4CC4)CC3)cc2C)c(-c2cccc(-n3ncc(C(=O)O)c3C(F)(F)F)n2)s1
Reply: false (0)

Task item: Reported pEC50 at or above 7? Cc1cc2c(c(-c3cccc(-n4ncc(C(=O)O)c4C(F)(F)F)n3)c1)C(Nc1ccc(C3CCN(C(=O)C4CC4)CC3)cc1C)CC2 (single isomer, unassigned; (+))
Reply: true (1)

Others:
Task item: Reported pEC50 at or above 7? O=C(O)CCCCN(CCc1ccccc1OCc1ccc(CCc2ccccc2)cc1)Cc1ccc(C(=O)O)cc1
Reply: true (1)

Task item: Reported pEC50 at or above 7? Cc1cc(C2CCN(C(=O)C3CC3)CC2)ccc1OC1CCc2cccc(-c3cccc(-n4ncc(C(=O)O)c4C(F)(F)F)n3)c21 (single isomer, unassigned; (+))
Reply: true (1)

Task item: Reported pEC50 at or above 7? CCc1c(C)sc(-c2cccc(-n3ncc(C(=O)O)c3C(F)(F)F)n2)c1COc1ccc(C2CCN(C(=O)C3CC3)CC2)cc1C
Reply: true (1)

Task item: Reported pEC50 at or above 7? Cc1cc(C2CCN(C(=O)C3CC3)CC2)ccc1OCc1c(C)csc1-c1cccc(-n2ncc(C(=O)O)c2C(F)(F)F)n1
Reply: true (1)

Task item: Reported pEC50 at or above 7? Cc1cc(C2CCN(C(=O)C3CC3)CC2)ccc1OC1CCc2cccc(-c3cccc(-n4cc(C(=O)O)cn4)n3)c21 (single isomer, unassigned; (+))
Reply: false (0)

----------
measurementDescription: Activation of soluble guanylate cyclase in human GTM3 cells assessed as increase in cGMP production after 30 mins by fluorescence assay
Type: cell-based
pEC50: −log10 of the molar value.
Mark fulfilled for reported pEC50 of 7 or greater; mark not fulfilled for anything smaller.

Observe how each entry below is paired with its result.
Task item: Reported pEC50 at or above 7? Cc1cc(C2CCN(C(=O)C3CC3)CC2)ccc1NC1CCc2cccc(-c3cccc(-n4ncc(C(=O)O)c4C)n3)c21 (stereo in doubt; (+)-23)
Reply: fulfilled

Task item: Reported pEC50 at or above 7? Cc1cc(C2CCN(C(=O)C3CC3)CC2)ccc1NC1CCc2cccc(-c3cccc(-n4ncc(C(=O)O)c4C(F)(F)F)n3)c21 (single isomer, unassigned; (-))
Reply: not fulfilled

Task item: Reported pEC50 at or above 7? Cc1cc(C2CCN(C(=O)C3CC3)CC2)ccc1NC1CCc2cccc(-c3cccc(-n4ncc(C(=O)O)c4C)n3)c21 (stereo in doubt; (-)-23)
Reply: not fulfilled

Task item: Reported pEC50 at or above 7? CCc1cc(OCC2=C(c3cccc(-n4ncc(C(=O)O)c4C(F)(F)F)n3)CCCC2C)ccc1C1CCN(C(=O)C2CC2)CC1 (single isomer, unassigned; (+))
Reply: fulfilled

Task item: Reported pEC50 at or above 7? Cc1cc(C2CCN(C(=O)C3CC3)CC2)ccc1NC1CCc2cccc(-c3cccc(-n4ncc(C(=O)O)c4C(F)(F)F)n3)c21 (single isomer, unassigned; (+))
Reply: fulfilled

Please look at the following molecule next.
Task item: Reported pEC50 at or above 7? CCc1cc(OCC2=C(c3cccc(-n4ncc(C(=O)O)c4C(F)(F)F)n3)CCCC2C)ccc1C1CCN(C(=O)C2CC2)CC1 (stereo in doubt; (-)-17)
Reply: not fulfilled

----------
measurementDescription: Activation of HUVEC-derived soluble guanylate cyclase expressed in CHOK1 cells assessed as increase in cGMP production after 1 hr by HTRF assay
Type: cell-based
pEC50 values for the molecules below.
The scale used: pEC50 is minus the common logarithm of the concentration in molar units.

Task item: Given CCc1cc(OCC2=C(c3cccc(-n4ncc(C(=O)O)c4C(F)(F)F)n3)CCCC2C)ccc1C1CCN(C(=O)C2CC2)CC1 (stereo in doubt; (-)-17) , state its recorded pEC50.
Reply: 8.05

Task item: Given Cc1cc(C2CCN(C(=O)C3CC3)CC2)ccc1OC1CCc2cccc(-c3cccc(-n4ncc(C(=O)O)c4C(F)(F)F)n3)c21 (single isomer, unassigned; (-)) , state its recorded pEC50.
Reply: 8.15

Task item: Given Cc1cc(C2CCN(C(=O)C3CC3)CC2)ccc1NC1CCc2cccc(-c3cccc(-n4ncc(C(=O)O)c4C(F)(F)F)n3)c21 (single isomer, unassigned; (-)) , state its recorded pEC50.
Reply: 7.43

Task item: Given Cc1cc(C2CCN(C(=O)C3CC3)CC2)ccc1NC1CCc2cccc(-c3cccc(-n4ncc(C(=O)O)c4C)n3)c21 (stereo in doubt; (-)-23) , state its recorded pEC50.
Reply: 7.77

Task item: Given Cc1cc(C2CCN(C(=O)C3CC3)CC2)ccc1OC1CCc2cccc(-c3cccc(-n4ncc(C(=O)O)c4C(F)(F)F)n3)c21 (single isomer, unassigned; (+)) , state its recorded pEC50.
Reply: 9.00

Others:
Task item: Given Cc1cc2c(c(-c3cccc(-n4ncc(C(=O)O)c4C(F)(F)F)n3)c1)C(Nc1ccc(C3CCN(C(=O)C4CC4)CC3)cc1C)CC2 (single isomer, unassigned; (-)) , state its recorded pEC50.
Reply: 7.62

----------
measurementDescription: Activation of soluble guanylate cyclase in human GTM3 cells assessed as increase in cGMP production after 30 mins by fluorescence assay
Type: cell-based
studyConditions: Homo sapiens, GTM3, 0.5 h
measurementKind: pEC50
The scale used: pEC50 is minus the common logarithm of the concentration in molar units.

Sample records with pEC50:
Task item: Given Cc1cc(C2CCN(C(=O)C3CC3)CC2)ccc1OCC1=C(c2cccc(-n3ncc(C(=O)O)c3C(F)(F)F)n2)CCCC1 , state its recorded pEC50.
Reply: 7.07

Task item: Given CCc1csc(-c2cccc(-n3ncc(C(=O)O)c3C(F)(F)F)n2)c1COc1ccc(C2CCN(C(=O)C3CC3)CC2)cc1C , state its recorded pEC50.
Reply: 6.80

Others:
Task item: Given CCc1cc(OCC2=C(c3cccc(-n4ncc(C(=O)O)c4C(F)(F)F)n3)CCCC2(C)C)ccc1C1CCN(C(=O)C2CC2)CC1 , state its recorded pEC50.
Reply: 6.85

----------
pEC50 values for the compounds below.
measurementDescription: Activation of HUVEC-derived soluble guanylate cyclase expressed in CHOK1 cells assessed as increase in cGMP production after 1 hr by HTRF assay
Assay type: cell-based
pEC50: −log10 of the molar value.

Sample records with pEC50:
Task item: Given CCc1cc(OCC2=C(c3cccc(-n4ncc(C(=O)O)c4C)n3)CCCC2C)ccc1C1CCN(C(=O)C2CC2)CC1 (single isomer, unassigned; (+)) , state its recorded pEC50.
Reply: > 9.30

Task item: Given Cc1cc(C2CCN(C(=O)C3CC3)CC2)ccc1NC1CCc2cccc(-c3cccc(-n4ncc(C(=O)O)c4C(F)(F)F)n3)c21 (single isomer, unassigned; (+)) , state its recorded pEC50.
Reply: > 9.30

Now for a further compound.
Task item: Given Cc1cc(C2CCN(C(=O)C3CC3)CC2)ccc1NC1CCc2cccc(-c3cccc(-n4ncc(C(=O)O)c4C)n3)c21 (stereo in doubt; (+)-23) , state its recorded pEC50.
Reply: > 9.30
